Test system: RNA polymerase II Serine 5 phosphorylation (Rpb1 CTD), downstream substrate of CDK7
Experiment: Imaging-based cellular RNA PolII Ser5 phosphorylation assay in A549 cells
Assay type: cell-based, human
Conditions: Homo sapiens, A549, 3 h, challenged with compound for 3 hours, read-out: pRNA polII Ser5 (A549) pIC50 (converted)
resultType: IC50 (nM)

I = CC(C)N1CC[C@@H](C(=O)N2Cc3nc(NC4CCOCC4)ncc3C[C@H]2C)[C@H](c2cccc(F)c2)C1 (single isomer, unassigned)
II = C[C@@H]1Cc2cnc(Nc3cnn(C4CCCC4)c3)nc2CN1C(=O)[C@H]1CCN(C)C[C@@H]1c1ccccc1
Q: Hey, which is lower on measured IC50, I or II ? Your answer should be the label attached to the chosen record.
A: II
(II: 28.8 nM, I: 4070 nM)

====

Tested on: RNA polymerase II Serine 5 phosphorylation (Rpb1 CTD), downstream substrate of CDK7
Test: Imaging-based cellular RNA PolII Ser5 phosphorylation assay in A549 cells
Type: cell-based, human
Conditions: Homo sapiens, A549, 3 h, challenged with compound for 3 hours, read-out: pRNA polII Ser5 (A549) pIC50 (converted)
resultType: IC50 (nM)

Solved entries (count: 2):
CN1CC[C@H](C(=O)N2Cc3nc(NC4CCOCC4)ncc3CC2(C)C)[C@@H](c2ccccc2)C1 (relative stereo) = 1020
C[C@@H]1CN(C)CC[C@H]1C(=O)N1Cc2nc(NCc3ccn(C)n3)ncc2C[C@H]1C (relative stereo) = 813

1 = Cc1ccc([C@H]2CN(C)CC[C@@H]2C(=O)N2Cc3nc(NC4CCOCC4)ncc3C[C@H]2C)cc1 (relative stereo)
2 = C[C@@H]1Cc2cnc(Nc3cnn(CC4CC4)c3)nc2CN1C(=O)[C@H]1CCN(C)C[C@@H]1c1ccccc1
Q: Between 1 and 2 , whose recorded IC50 is greater? Your answer should be the label attached to the chosen record.
A: 1

====

Molecular target: CDK7/Cyclin H/MAT-1 complex (Homo sapiens)
Construct: Human CDK7 (amino acids 1-346); His6 (N); TEV protease cleavage site (N); made in house; host or cells: baculovirus-SF9 insect cells
Assay: Absorbance kinetic assay (20 nM CDK7/Cyclin H/MAT-1 complex)
Type: biochemical
Settings: read-out: CDK7 (20 nM) pIC50 (converted)
# IC50 values compiled below

Solved entries (count: 2):
C[C@@H]1Cc2cnc(N[C@@H]3CCOC(C)(C)C3)nc2CN1C(=O)[C@H]1CCN(C)C[C@@H]1c1ccccc1 (relative stereo) = 11 nM
C[C@@H]1Cc2cnc(N[C@H]3CCCNC3)nc2CN1C(=O)[C@H]1CCN(C)C[C@@H]1C(F)(F)F (relative stereo) = < 9.77 nM

# next compound below
Kindly note the recorded IC50 for C[C@@H]1Cc2cnc(N[C@H]3CCOC(C)(C)C3)nc2CN1C(=O)[C@H]1CCN(C)C[C@@H]1c1ccccc1 (relative stereo) , which is < 20 nM

====

Molecular target: CDK7/Cyclin H/MAT-1 complex (Homo sapiens)
Construct: Human CDK7 (amino acids 1-346); His6 (N); TEV protease cleavage site (N); made in house; host or cells: baculovirus-SF9 insect cells
Assay: Absorbance kinetic assay (20 nM CDK7/Cyclin H/MAT-1 complex)
Format: biochemical
resultType: CDK7 (20 nM) pIC50

Cc1cccc([C@H]2CN(C(C)C)CC[C@@H]2C(=O)N2Cc3nc(NC4CCOCC4)ncc3C[C@H]2C)c1 [Compound 166] = 7.74
C[C@@H]1Cc2cnc(NC3CCN(C(=O)C4CC4)CC3)nc2CN1C(=O)[C@H]1CCN(C)C[C@@H]1c1ccccc1 [Compound 33] = 7.88

====

System: RNA polymerase II Serine 5 phosphorylation (Rpb1 CTD), downstream substrate of CDK7
Assay: Imaging-based cellular RNA PolII Ser5 phosphorylation assay in A549 cells
Assay type: cell-based, human
Conditions: Homo sapiens, A549, 3 h, challenged with compound for 3 hours, read-out: pRNA polII Ser5 (A549) pIC50 (converted)
resultType: IC50 (µM)

Solved entries (count: 4):
CC(C)N1CC[C@H](C(=O)N2Cc3nc(NC4CCOCC4)ncc3C[C@H]2C)[C@@H](c2cccc(F)c2)C1 (single isomer, unassigned) [Compound 163] = 0.162
C[C@@H]1Cc2cnc(N[C@@H]3CCOC4(CCC4)C3)nc2CN1C(=O)[C@H]1CCN(C)C[C@@H]1c1ccccc1 (relative stereo) [Compound 8] = 0.0692
C[C@@H]1Cc2cnc(NCc3cc(C(F)F)n(C)n3)nc2CN1C(=O)[C@H]1CCN(C)C[C@@H]1c1ccccc1 [Compound 56] = 5.13
C[C@@H]1Cc2cnc(N[C@H]3COc4ccccc43)nc2CN1C(=O)[C@H]1CCN(C)C[C@@H]1c1ccccc1 (relative stereo) [Compound 17] = 0.363

I = CC(C)n1cc(Nc2ncc3c(n2)CN(C(=O)[C@H]2CCN(C)C[C@@H]2c2ccccc2)[C@H](C)C3)cn1 [Compound 89]
II = Cc1cc([C@@H]2CN(C)CC[C@H]2C(=O)N2Cc3nc(NC4CCOCC4)ncc3C[C@H]2C)ccn1 (relative stereo) [Compound 102]
Q: Hey, which is lower on measured IC50, I or II ? Your answer should be the label attached to the chosen record.
A: I
(I: 0.0708 µM, II: 1.7 µM)

====

Test system: RNA polymerase II Serine 5 phosphorylation (Rpb1 CTD), downstream substrate of CDK7
Test: Imaging-based cellular RNA PolII Ser5 phosphorylation assay in A549 cells
Format: cell-based, human
Conditions: Homo sapiens, A549, 3 h, challenged with compound for 3 hours, read-out: pRNA polII Ser5 (A549) pIC50 (converted)
resultType: IC50 (nM)

Solved entries (count: 5):
C[C@@H]1Cc2cnc(N[C@H]3CC[C@H](O)CC3)nc2CN1C(=O)[C@H]1CCN(C)C[C@@H]1c1ccccc1 = 93.3
C[C@@H]1Cc2cnc(N[C@H](C)c3ccn(C)n3)nc2CN1C(=O)[C@H]1CCN(C)C[C@@H]1c1ccccc1 (single isomer, unassigned) = 123
C[C@@H]1Cc2cnc(N[C@H]3CC[C@@H](C)CC3)nc2CN1C(=O)[C@H]1CCN(C)C[C@@H]1c1ccccc1 = 479
CO[C@]1(C)CC[C@@H](Nc2ncc3c(n2)CN(C(=O)[C@H]2CCN(C)C[C@@H]2c2ccccc2)[C@H](C)C3)CC1 = 158
C[C@@H]1Cc2cnc(NC[C@@H]3CCCO3)nc2CN1C(=O)[C@H]1CCN(C)C[C@@H]1c1ccccc1 = 1320

I = C[C@@H]1Cc2cnc(NCc3ccn(C)n3)nc2CN1C(=O)[C@H]1CCN(C)C[C@@H]1c1cccc(OC(F)(F)F)c1 (relative stereo)
II = C[C@@H]1Cc2cnc(NCc3ccn(C)n3)nc2CN1C(=O)[C@H]1CCN(C)C[C@@H]1c1ccccc1C(F)F (relative stereo)
Q: Hey, which is lower on measured IC50, I or II ? Your answer should be the label attached to the chosen record.
A: I

P = C[C@@H]1Cc2cnc(NCc3ccn(C)n3)nc2CN1C(=O)[C@@H]1CCN(C)C[C@H]1c1cccc(C(F)F)c1 (relative stereo)
Q = C[C@@H]1Cc2cnc(N[C@H]3CCCNC3)nc2CN1C(=O)[C@H]1CCN(C)C[C@@H]1C(F)(F)F (relative stereo)
Q: Between P and Q , whose recorded IC50 is greater? Your answer should be the label attached to the chosen record.
A: P

====

Molecular target: CDK7/Cyclin H/MAT-1 complex (Homo sapiens, UniProt P50613)
Construct: Human CDK7 (amino acids 1-346); His6 (N); TEV protease cleavage site (N); made in house; host or cells: baculovirus-SF9 insect cells
Sequence (P50613 whole entry, the tested form may be a part): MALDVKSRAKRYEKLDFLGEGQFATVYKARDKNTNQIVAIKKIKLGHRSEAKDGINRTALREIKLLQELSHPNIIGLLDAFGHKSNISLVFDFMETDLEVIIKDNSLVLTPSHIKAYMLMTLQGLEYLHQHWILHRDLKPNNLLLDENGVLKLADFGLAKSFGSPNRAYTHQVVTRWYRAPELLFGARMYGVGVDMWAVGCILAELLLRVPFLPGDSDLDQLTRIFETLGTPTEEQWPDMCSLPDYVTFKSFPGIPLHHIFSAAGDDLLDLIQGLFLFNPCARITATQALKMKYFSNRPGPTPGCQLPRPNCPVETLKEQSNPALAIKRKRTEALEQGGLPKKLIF
Sequence (P51946 whole entry partner, the tested form may be a part): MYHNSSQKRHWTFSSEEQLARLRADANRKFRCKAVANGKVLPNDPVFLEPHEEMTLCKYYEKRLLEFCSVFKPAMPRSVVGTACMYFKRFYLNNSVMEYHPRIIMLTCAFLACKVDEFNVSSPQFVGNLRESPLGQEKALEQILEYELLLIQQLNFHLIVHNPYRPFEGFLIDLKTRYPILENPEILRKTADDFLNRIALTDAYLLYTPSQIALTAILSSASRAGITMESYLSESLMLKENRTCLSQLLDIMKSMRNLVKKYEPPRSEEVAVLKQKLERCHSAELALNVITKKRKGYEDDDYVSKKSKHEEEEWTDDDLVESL
Sequence (P51948 whole entry partner, the tested form may be a part): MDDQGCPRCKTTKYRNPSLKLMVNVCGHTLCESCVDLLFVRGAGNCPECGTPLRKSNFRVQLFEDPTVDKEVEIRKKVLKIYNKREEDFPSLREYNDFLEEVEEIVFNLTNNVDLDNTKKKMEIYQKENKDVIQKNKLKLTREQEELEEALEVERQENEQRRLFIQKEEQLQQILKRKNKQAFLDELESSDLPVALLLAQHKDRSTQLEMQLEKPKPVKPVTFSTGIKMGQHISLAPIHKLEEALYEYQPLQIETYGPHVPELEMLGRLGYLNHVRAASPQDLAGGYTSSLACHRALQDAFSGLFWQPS
Test: Absorbance kinetic assay (20 nM CDK7/Cyclin H/MAT-1 complex)
Format: biochemical
resultType: CDK7 (20 nM) pIC50

C[C@@H]1Cc2cnc(NC3CCOCC3)nc2CN1C(=O)N1CCN(C)C[C@@H]1c1ccccc1 [Compound 204a] = 7.81
C[C@@H]1Cc2cnc(NC3CCOCC3)nc2CN1C(=O)[C@H]1CCN(C)C[C@@H]1c1ccc(Cl)c(F)c1 [Compound 122b] = 7.15
C[C@@H]1Cc2cnc(Nc3cnn(CC(C)(C)O)c3)nc2CN1C(=O)[C@H]1CCN(C)C[C@@H]1c1ccccc1 = 7.72
C[C@@H]1Cc2cnc(NC3CC(C)(C)OC(C)(C)C3)nc2CN1C(=O)[C@H]1CCN(C)C[C@@H]1c1ccccc1 = 7.96

====

Target: CDK7/Cyclin H/MAT-1 complex (Homo sapiens, UniProt P50613)
Construct: Human CDK7 (amino acids 1-346); His6 (N); TEV protease cleavage site (N); made in house; host or cells: baculovirus-SF9 insect cells
Test: Flint assay, end-point fluorescence (5 nM CDK7/Cyclin H/MAT-1 complex)
Format: biochemical
resultType: CDK7 (5 nM) pIC50

C[C@@H]1Cc2cnc(N[C@H]3CCC[C@H](O)C3)nc2CN1C(=O)[C@H]1CCN(C)C[C@@H]1c1ccccc1 [Compound 59] = 8.28
CO[C@H]1CC[C@H](Nc2ncc3c(n2)CN(C(=O)[C@H]2CCN(C)C[C@@H]2c2ccccc2)[C@H](C)C3)CC1 [Compound 37] = 8.6
C[C@@H]1Cc2cnc(NCc3ccn(C)n3)nc2CN1C(=O)[C@H]1CCN(C)C[C@@H]1c1ccccc1 [Compound 1] = 8.61
CO[C@H]1CC[C@H](Nc2ncc3c(n2)CN(C(=O)[C@H]2CCN(C)C[C@@H]2c2ccccc2)[C@H]2C[C@@H]32)CC1 [Compound 201] = 8.16
C[C@@H]1Cc2cnc(NC3CCOCC3)nc2CN1C(=O)N1CCN(C)C[C@@H]1c1ccccc1 [Compound 204a] = 8.17
CC(C)N1CC[C@H](C(=O)N2Cc3nc(NC4CCOCC4)ncc3C[C@H]2C)[C@@H](c2cccc(Cl)c2)C1 (single isomer, unassigned) [Compound 160] = 8.58
CC(C)n1ccc(CNc2ncc3c(n2)CN(C(=O)[C@H]2CCN(C)C[C@@H]2c2ccccc2)[C@H](C)C3)n1 [Compound 66] = 8.56
C[C@@H]1Cc2cnc(NC3CCN(S(=O)(=O)N(C)C)CC3)nc2CN1C(=O)N1CCN(C)C[C@@H]1c1ccccc1 [Compound 211] = 7.88
C[C@@H]1Cc2cnc(Nc3ccnc(C(F)F)c3)nc2CN1C(=O)[C@H]1CCN(C)C[C@@H]1c1ccccc1 [Compound 75] = 8.04
C[C@@H]1Cc2cnc(NC3CCN(S(C)(=O)=O)CC3)nc2CN1C(=O)N1CCN(C)C[C@@H]1c1ccccc1 [Compound 209] = 8.48
Cc1ccc(CNc2ncc3c(n2)CN(C(=O)[C@H]2CCN(C)C[C@@H]2c2ccccc2)[C@H](C)C3)o1 [Compound 50] = 8.05
C[C@@H]1Cc2cnc(Nc3ccnn3C)nc2CN1C(=O)[C@H]1CCN(C)C[C@@H]1c1ccccc1 [Compound 79] = 7.78
CC(C)N1CCN(C(=O)N2Cc3nc(NC4CCOCC4)ncc3C[C@H]2C)[C@@H](c2ccccc2)C1 [Compound 206] = 8.19
C[C@@H]1Cc2cnc(NC[C@H]3CCOC3)nc2CN1C(=O)[C@H]1CCN(C)C[C@@H]1c1ccccc1 [Compound 53] = 7.99
C[C@@H]1Cc2cnc(N[C@@H](CO)c3ccccc3)nc2CN1C(=O)[C@H]1CCN(C)C[C@@H]1c1ccccc1 [Compound 71] = 8.54
C[C@@H]1Cc2cnc(Nc3cnn(CC(C)(C)O)c3)nc2CN1C(=O)[C@H]1CCN(C)C[C@@H]1c1ccccc1 [Compound 74] = 8.0
C[C@@H]1Cc2cnc(NC3CCOCC3)nc2CN1C(=O)[C@H]1CCN(C)C[C@@H]1c1ccc(Cl)c(F)c1 [Compound 122b] = 8.5
C[C@@H]1Cc2cnc(NCc3cc(C(F)F)n(C)n3)nc2CN1C(=O)[C@H]1CCN(C)C[C@@H]1c1ccccc1 [Compound 56] = 7.44
C[C@@H]1c2nc(NC3CCOCC3)ncc2[C@@H](C)CN1C(=O)[C@H]1CCN(C)C[C@@H]1c1ccccc1 [Compound 180a] = 8.68
C[C@@H]1Cc2cnc(NCc3cnn(C)c3)nc2CN1C(=O)[C@H]1CCN(C)C[C@@H]1c1ccccc1 [Compound 57] = 7.53
Cc1cccc([C@H]2CN(C)CC[C@@H]2C(=O)N2Cc3nc(NC4CCOCC4)ncc3C[C@H]2C)c1 [Compound 93] = 8.52
C[C@@H]1Cc2cnc(Nc3cnn(C)c3)nc2CN1C(=O)[C@H]1CCN(C)C[C@@H]1c1ccccc1 [Compound 82] = 8.67
C[C@@H]1Cc2cnc(N[C@H](C)c3ccccc3)nc2CN1C(=O)[C@H]1CCN(C)C[C@@H]1c1ccccc1 [Compound 22] = 8.19
Cc1cccc([C@H]2CN(C(C)C)CC[C@@H]2C(=O)N2Cc3nc(NC4CCOCC4)ncc3C[C@H]2C)c1 [Compound 166] = 7.85
C[C@@H]1Cc2cnc(NCc3ccccc3)nc2CN1C(=O)[C@H]1CCN(CC2COC2)C[C@@H]1c1ccccc1 (single isomer, unassigned) [Compound 155] = 8.2
Cc1cn(C)nc1CNc1ncc2c(n1)CN(C(=O)[C@H]1CCN(C)C[C@@H]1c1ccccc1)[C@H](C)C2 [Compound 61] = 7.97
C[C@@H]1Cc2cnc(NC3CCC(OCC4CC4)CC3)nc2CN1C(=O)[C@H]1CCN(C)C[C@@H]1c1ccccc1 (stereo partly drawn) [Compound 3] = 8.3

Hey, just so you know, these numbers are from patent US12679839B2.
